Origin of the recorded values: ChEMBL document CHEMBL1201862

// reported GI50 per item
Test system: MDA-MB-231
Assay explanation: NCI tumour cell line growth inhibition, 48 h
The source made the active and inactive calls. Cut-off read from the data, not from the text of the source: active = GI50 up to about 1.1 µM and inactive = higher.

Examples from the recorded data:
Compound	Meas value
O=C(Nc1ccc(Cl)cc1)c1cc(S(=O)(=O)NC2=Nc3ccc(Cl)cc3C(c3ccccc3)N2)c(SSc2cc(Cl)c(C(=O)Nc3ccc(Cl)cc3)cc2S(=O)(=O)NC2=Nc3ccc(Cl)cc3C(c3ccccc3)N2)cc1Cl (centres undefined)	24.3 µM (inactive)
OC(C#Cc1ccccc1)(c1ccccc1)c1ccccc1	51.8 µM (inactive)
N#Cc1c(O)c(/N=N/c2ccc(Cl)cc2)c(=O)n2c1[nH]c1ccccc12	29.3 µM (inactive)

Exercise: // lookup GI50 for COc1nc(C#CCCCC#N)nc(OC)n1
Solution: 11.7 µM (inactive)

Exercise: Same again, this time with O=C1c2c(O)cccc2Cc2cc(CO)cc(O)c21
Solution: 2.3 µM (inactive)

Exercise: Same again, this time with CN1C(=O)C2(C=CC(O)CC2)c2ccccc21 (centres undefined)
Solution: > 100 µM (inactive)

Exercise: Same again, this time with CC(=O)c1cc2ccccc2oc1=O
Solution: > 100 µM (inactive)

Exercise: Same again, this time with COc1cc(-c2oc3c(OC)c(O)c(OC)c(O)c3c(=O)c2OC)ccc1O
Solution: 44.2 µM (inactive)

* * *

Tested on: OVCAR-4
Assay explanation: NCI tumour cell line growth inhibition, 48 h
The source made the active and inactive calls. Rule as the data show it: active = GI50 up to about 1.1 µM and inactive = higher.
// allowed return values: active, inactive

Examples from the recorded data:
> print(dat)
                                   compound  system.tested  assigned.class
1  C=C1c2nc3ccccc3n2C=C(c2ccc(C)cc2)N1c1ccccc1        OVCAR-4        inactive
2    O=C1C(Cl)=C(Cl)C(=O)C(CCNc2nccs2)=C1Cl        OVCAR-4        inactive

Exercise: Would you mind telling me which call this test gave COc1cc2c(cc1OC)C1Cc3ccccc3CCN1CC2 (stereo not given) ?
Solution: inactive

Exercise: Same again, this time with Cc1nc2ccccc2n1Cc1ccc(NC(=S)NC2CCCCC2)cc1
Solution: inactive

Exercise: Same again, this time with NN/C(=N\S(=O)(=O)c1cc2ccccc2o1)Nc1ccc(Cl)cc1
Solution: inactive

Exercise: Same again, this time with COc1cc(/C=C2/C[C@H]3[C@@H]4CC=C5C[C@@H](O)CC[C@]5(C)[C@H]4CC[C@]3(C)NC2=O)cc(OC)c1OC
Solution: inactive

* * *

System: SN12C
Assay explanation: NCI tumour cell line growth inhibition, 48 h
Activity calls are given as the source filed them. Rule as the data show it: active = GI50 up to about 1.1 µM and inactive = higher.
// allowed return values: 1 = active, -1 = inactive

Exercise: Would you mind telling me which call this test gave COc1cc2c3cc1Oc1c(OC)c(OC)cc4c1C(Cc1ccc(O)c(c1)Oc1ccc(cc1)CC3N(C)CC2)N(C)CC4 (stereo not given) ?
Solution: -1

Exercise: Same again, this time with CC(C)NCC(O)c1ccc(OCc2ccccc2)c(OCc2ccccc2)c1-c1ccccc1 (stereo not given)
Solution: -1

Exercise: Same again, this time with OC(C#Cc1ccccc1)(c1ccccc1)c1ccccc1
Solution: -1

Exercise: Same again, this time with O=C1C(/N=N/c2ccc(-c3nc4ccccc4[nH]3)cc2)NC(=S)N1c1ccccc1 (stereo not given)
Solution: -1

Exercise: Same again, this time with O=C(CCSC1=NCCCN1)c1ccc(F)cc1
Solution: -1

Exercise: Same again, this time with COC(=O)/C=C1\CCCN1CCc1cc2c(cc1CC#N)OCO2
Solution: -1

Exercise: Same again, this time with COC(=O)[C@]1(Cc2ccc3ccccc3c2)CCCCCCN1C(=O)c1ccccc1
Solution: -1

Exercise: Same again, this time with O=C1C(Cl)=C(Cl)C(=O)C(CCNc2nccs2)=C1Cl
Solution: -1
